Data origin, for the record: patent US20140275060A1

- assayed_target: GluN1/GluN2B Receptors (Rattus norvegicus, UniProt P35439+Q00960)
- Sequence (Q00960 27-1482, other chains not shown): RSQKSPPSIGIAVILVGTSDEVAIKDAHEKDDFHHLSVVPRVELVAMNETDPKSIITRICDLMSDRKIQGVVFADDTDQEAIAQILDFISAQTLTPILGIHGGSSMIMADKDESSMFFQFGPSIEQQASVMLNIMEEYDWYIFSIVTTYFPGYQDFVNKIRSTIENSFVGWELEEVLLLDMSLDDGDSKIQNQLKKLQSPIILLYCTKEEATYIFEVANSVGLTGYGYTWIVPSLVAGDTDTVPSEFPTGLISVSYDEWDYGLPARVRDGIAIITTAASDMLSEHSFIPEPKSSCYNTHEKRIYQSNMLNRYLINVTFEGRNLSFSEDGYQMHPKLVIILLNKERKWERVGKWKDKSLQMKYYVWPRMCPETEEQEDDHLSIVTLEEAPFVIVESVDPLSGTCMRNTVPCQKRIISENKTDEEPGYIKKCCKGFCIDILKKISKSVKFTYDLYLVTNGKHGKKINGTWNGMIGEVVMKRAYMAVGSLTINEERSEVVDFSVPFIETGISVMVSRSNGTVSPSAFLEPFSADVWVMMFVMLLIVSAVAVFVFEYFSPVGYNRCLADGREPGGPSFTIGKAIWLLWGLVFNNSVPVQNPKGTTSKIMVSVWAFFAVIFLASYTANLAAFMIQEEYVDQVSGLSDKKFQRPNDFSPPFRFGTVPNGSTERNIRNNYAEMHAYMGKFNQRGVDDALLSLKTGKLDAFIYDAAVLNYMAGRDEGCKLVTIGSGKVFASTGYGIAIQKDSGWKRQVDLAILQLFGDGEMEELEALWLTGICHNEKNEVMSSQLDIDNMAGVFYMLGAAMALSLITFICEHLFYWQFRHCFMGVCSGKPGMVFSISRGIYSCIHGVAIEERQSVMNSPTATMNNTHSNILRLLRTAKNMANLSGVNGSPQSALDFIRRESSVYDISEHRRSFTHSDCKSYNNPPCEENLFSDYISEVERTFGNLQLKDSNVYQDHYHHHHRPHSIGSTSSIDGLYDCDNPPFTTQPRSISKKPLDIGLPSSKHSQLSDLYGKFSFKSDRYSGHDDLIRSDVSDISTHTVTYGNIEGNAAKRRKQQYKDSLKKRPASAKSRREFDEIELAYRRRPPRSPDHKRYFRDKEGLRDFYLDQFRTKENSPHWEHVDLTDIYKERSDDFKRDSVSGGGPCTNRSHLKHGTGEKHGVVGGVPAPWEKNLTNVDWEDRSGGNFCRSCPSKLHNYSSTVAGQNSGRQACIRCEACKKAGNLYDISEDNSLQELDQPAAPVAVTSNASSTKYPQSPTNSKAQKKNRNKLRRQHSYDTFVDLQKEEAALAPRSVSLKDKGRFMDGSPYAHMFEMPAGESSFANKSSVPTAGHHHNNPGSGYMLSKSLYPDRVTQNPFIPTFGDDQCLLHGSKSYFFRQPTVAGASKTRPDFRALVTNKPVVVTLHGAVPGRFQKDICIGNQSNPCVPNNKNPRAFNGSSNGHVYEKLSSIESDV
- test_details: Two-electrode voltage-clamp IC50 determination at GluN1/GluN2B receptors expressed in Xenopus oocytes
- Type: cell-based, Human or Rat
- measurement_context: pH 6.9
- Description: Determination of IC50 Values of GluN1/GluN2B Receptors Expressed in Xenopus oocytes in Human or Rat Stage V and VI oocytes were surgically removed from the ovaries of large, well-fed and healthy Xenopus laevis anesthetized with 3-amino-benzoic acid ethyl ester (3 gm/l). […] Oocytes were recorded under voltage clamp at −40 mV. […] The baseline leak current at −40 mV was measured before and after recording, and the full recording linearly corrected for any change in leak current. […]
Entry flag: 1.0 if nH (slope factor of the inhibition curve) reaches -0.8; 0.0 if it does not.

Solved cases below.
{"compound": "O=C1COc2cc(/C=C/[C@H](O)CN3CCN(c4ccc(C(F)(F)F)cc4)CC3)ccc2N1 [Compound 16]", "cat": 1.0}
{"compound": "O=C1NCc2cc(/C=C/[C@@H](O)CN3CCN(c4ccc(C(F)(F)F)cc4)CC3)ccc2N1 [Compound 41]", "cat": 1.0}
{"compound": "CCCc1ccc(N2CCN(CC(O)C=Cc3ccc4[nH]c(=O)ccc4c3)CC2)cc1 (racemic) [Compound 10]", "cat": 0.0}
{"compound": "O=C1COc2cc(/C=C/[C@@H](O)CN3CCN(c4ccc(C(F)(F)F)cc4)CC3)ccc2N1 [Compound 15]", "cat": 0.0}
{"compound": "O=C1CCc2cc(/C=C/[C@@H](CO)N3CCN(c4ccc(C(F)(F)F)cc4)CC3)ccc2N1 [Compound 43]", "cat": 1.0}
{"compound": "NC(=O)Nc1ccc(/C=C/[C@@H](O)CN2CCN(c3ccc(C(F)(F)F)cc3)CC2)cc1 [Compound 38]", "cat": 1.0}
{"compound": "O=C1CCc2cc(/C=C/[C@@H](O)CN3CCN(c4ccc(C(F)(F)F)cc4)CC3)ccc2N1 [Compound 35]", "cat": 1.0}
{"compound": "O=C1CCc2cc(/C=C/[C@@H](O)CN3CCN(c4ccc(Cl)cc4)CC3)ccc2N1 [Compound 31]", "cat": 1.0}

(Q) Record O=C1CCc2cc(/C=C/[C@H](O)CN3CCN(c4ccc(C(F)(F)F)cc4)CC3)ccc2N1 [Compound 33] ; criterion: nH (slope factor of the inhibition curve) no lower than -0.8. Met?
(A) 1.0

(Q) Let us now turn to O=C1CCc2cc(/C=C/[C@H](O)CN3CCN(c4ccc(Cl)cc4)CC3)ccc2N1 [Compound 27]
(A) 0.0

* * *

- assayed_target: GluN1/GluN2B Receptors (Rattus norvegicus, UniProt P35439+Q00960)
- test_details: Two-electrode voltage-clamp IC50 determination at GluN1/GluN2B receptors expressed in Xenopus oocytes
- Assay type: cell-based, Human or Rat
- measurement_context: pH 7.6
metric_name: nH (slope factor of the inhibition curve)
Enter a number only.

Record excerpt, results attached:
{"smiles_structure": "CCCc1ccc(N2CCN(C[C@@H](O)/C=C/c3ccc4[nH]c(=O)ccc4c3)CC2)cc1", "recorded_value": "−0.52"}
{"smiles_structure": "O=C1NCc2cc(/C=C/[C@@H](O)CN3CCN(c4ccc(C5CC5)cc4)CC3)ccc2N1", "recorded_value": "−1.28"}
{"smiles_structure": "O=C1COc2cc(/C=C/[C@H](O)CN3CCN(c4ccc(C(F)(F)F)cc4)CC3)ccc2N1", "recorded_value": "−1.29"}
{"smiles_structure": "CC(C)c1ccc(N2CCN(C[C@@H](O)/C=C/c3ccc(NC(N)=O)cc3)CC2)cc1", "recorded_value": "−1.05"}
{"smiles_structure": "O=C1CCc2cc(/C=C/[C@@H](O)CN3CCN(c4ccc(Cl)cc4)CC3)ccc2N1", "recorded_value": "−0.90"}

(Q) Report nH (slope factor of the inhibition curve) for O=c1ccc2cc(/C=C/[C@H](O)CN3CCN(c4ccc(C5CC5)cc4)CC3)ccc2[nH]1 tested on GluN1/GluN2B Receptors (Rattus norvegicus, UniProt P35439+Q00960).
(A) −0.80

(Q) Now try O=C1CCc2cc(/C=C/[C@H](O)CN3CCN(c4ccc(Cl)cc4)CC3)ccc2N1 .
(A) −0.64

(Q) Same for O=C1NCc2cc(/C=C/[C@@H](O)CN3CCN(c4ccc(C(F)(F)F)cc4)CC3)ccc2N1
(A) −1.04
